System: H. flu
Assay type: cell-based, H. influenza
assay.conditions: H. flu
Consider the following molecules and their measured MIC (μg/mL) H. flu readings.
Answer in µg/mL, number only, no unit symbol.

Bench note: what MIC (μg/mL) H. flu did COC1C=COC2(C)Oc3c(C)c(O)c4c(=O)c(c5oc6cc(N7CCC(c8ccccc8)CC7)cc(O)c6nc-5c4c3C2=O)NC(=O)C(C)=CC=CC(C)C(O)C(C)C(O)C(C)C(O)C1C (stereo not shown) [Compound 62] show? 0.5

Query (molecule): COc1c(N2CCCC2)cc(C)c2nc3c4c5c6c(C)c(O)c4c(=O)c(c-3oc12)NC(=O)C(C)=CC=CC(C)C(O)C(C)C(O)C(C)C(O)C(C)C(OC)C=COC(C)(O6)C5=O (stereo not shown) [Compound 118] ; field requested: MIC (μg/mL) H. flu 0.12

Endpoint output: MIC (μg/mL) H. flu of COC1C=COC2(C)Oc3c(C)c(O)c4c(=O)c(c5oc6cc(N7CCC(CNC(C)=O)CC7)cc(O)c6nc-5c4c3C2=O)NC(=O)C(C)=CC=CC(C)C(O)C(C)C(O)C(C)C(O)C1C (stereo not shown) [Compound 56] . Value? 0.25

***
Requested field: MIC (μg/mL) H. flu. Item: CCOC(=O)NC1CCN(c2ccc3nc4c5c6c7c(C)c(O)c5c(=O)c(c-4n(C)c3c2)NC(=O)/C(C)=C\C=C\[C@H](C)[C@H](O)[C@@H](C)[C@@H](O)[C@@H](C)[C@H](O)[C@H](C)[C@@H](OC)/C=C/O[C@@](C)(O7)C6=O)CC1 [Compound 31] 0.25
